Test system: hiPSC CM (iCell Cardiomyocytes)
protocol.text: Cellular impedance
Assay type: cell-based, human
study.conditions: 3 µM, 2 h exposure
property.name: effect on CM beating (beat rate or amplitude)

compound	endpoint.result
Cc1[nH]c(/C=C2\C(=O)Nc3ccc(F)cc32)c(C)c1C(=O)NC[C@H](O)CN1CCOCC1 [SU14813]	no effect on CM beating
Cc1cnc(Nc2ccc(OCCN3CCCC3)cc2)nc1Nc1cccc(S(=O)(=O)NC(C)(C)C)c1 [TG-101348]	no effect on CM beating

###

target: STK35 (Homo sapiens, UniProt Q8TDR2)
Sequence (Q8TDR2 whole entry): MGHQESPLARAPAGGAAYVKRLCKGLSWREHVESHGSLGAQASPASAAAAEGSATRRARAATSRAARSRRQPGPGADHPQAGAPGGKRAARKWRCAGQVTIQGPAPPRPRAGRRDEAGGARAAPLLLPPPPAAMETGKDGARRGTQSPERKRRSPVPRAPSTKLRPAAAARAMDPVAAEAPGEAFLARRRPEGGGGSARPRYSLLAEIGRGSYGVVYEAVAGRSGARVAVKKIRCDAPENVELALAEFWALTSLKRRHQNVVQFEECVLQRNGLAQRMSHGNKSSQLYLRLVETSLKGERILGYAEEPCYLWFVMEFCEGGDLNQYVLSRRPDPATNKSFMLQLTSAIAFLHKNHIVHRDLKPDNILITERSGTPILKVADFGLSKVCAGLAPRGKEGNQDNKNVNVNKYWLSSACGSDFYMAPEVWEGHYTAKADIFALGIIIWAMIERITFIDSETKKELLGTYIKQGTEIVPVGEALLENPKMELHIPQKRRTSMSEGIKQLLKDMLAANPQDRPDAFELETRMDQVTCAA
pIC50: −log10 of the molar value.
property.name: pIC50

Below are worked cases with known answers.
molecule	property.name	endpoint.result
Cc1cc(Nc2cc(N3CCN(C)CC3)nc(/C=C/c3ccccc3)n2)n[nH]1	pIC50	< 5.00
CNC(=O)c1cc(COc2nnc(Nc3ccc(Cl)cc3)c3ccoc23)ccn1	pIC50	< 4.49
NC(=O)Nc1cc(-c2cccc(F)c2)sc1C(=O)N[C@H]1CCCNC1	pIC50	< 5.49
COc1cc2nccc(Oc3ccc(NC(=O)C4(C(=O)Nc5ccc(F)cc5)CC4)cc3)c2cc1OC [Cabozantinib]	pIC50	5.24

Here is the next item to consider.
Query string: What value of pIC50 has been recorded for this entry: COc1cc2nccc(Oc3ccc(NC(=O)Nc4cc(C)on4)c(Cl)c3)c2cc1OC
Result string: < 5.49
